Where these numbers come from: paper PMC10397247

# target: T1, 4H619-bA
# T1 chain: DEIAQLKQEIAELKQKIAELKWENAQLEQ
# method_summary: two-hybrid library CCNG1;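 note: natural log of median RNA to DNA barcode read ratio; higher means stronger binding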
Label yes (1) when interaction score is at or above -0.8; otherwise label no (0).

## Task Item DENAQLKQKIAELEQEIAELKWENAQLKQ [4H1804-bA] with interaction score of -0.8 or above?
## Result no (0)

## Task Exam item: decide whether the reported interaction score for DEIAQLKQEIAELEQKNAELKWEIAQLKQ [4H570-bA] is at least -0.8.
## Result no (0)

## Task Hello, I need to know if DKNAQLEQKIAELKQENAELEWKIAQLKQ [4H3414-bA] has measured interaction score not below -0.8. Thanks!
## Result no (0)

## Task Hello, I need to know if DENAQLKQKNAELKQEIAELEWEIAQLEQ [4H1985-bA] has measured interaction score not below -0.8. Thanks!
## Result no (0)

## Task # check: interaction score of DKNAQLKQEIAELEQKNAELEWKIAQLKQ [4H3638-bA] is greater than or equal to -0.8
## Result yes (1)

## Task Assess whether reported interaction score for DENAQLEQKIAELKQEIAELKWKNAQLEQ [4H1359-bA] sits at -0.8 or higher.
## Result no (0)
